B1: SPACA3 (parent)
chain: FTSGFNAAALDYEADGSTNNGIFQ

Variants of: B1
Assay: protein stability index of a GFP-peptide fusion (GPS, HEK-293T) (PSI 1-6); higher = more stable;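 note: lentivirally expressed fusions sorted by FACS into six bins by GFP to DsRed ratio, PSI derived from sequencing read proportions per bin multiplied by bin number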
Conditions: c terminus: a fixed tail appended
Response key: 1 means protein stability index >= 2; 0 means protein stability index < 2.

Consider the worked cases shown below.
>>> df
   mutations  group
0        A7L      1
1       S17K      0
2        A7D      1
3       N19P      1
4       A14V      1
5       E13H      1
6        A9N      0
7       L10Y      0
8        N6Y      1
9        N6I      0

Incoming: Test whether the variant A9S records protein stability index of 2 or higher.
Outgoing: 1

Incoming: Test whether the variant G4Y records protein stability index of 2 or higher.
Outgoing: 0
